Experiment: Rat pharmacokinetics
Format: in vivo, Wistar rats
Conditions: male, Wistar, rat, plasma, po, 5.6 mg/kg/day, Wistar rats, oral drinking water 0.25mg/ml (5,6 mg/kg)
QUANTITY MEASURED: Tmax (h)

INSERT INTO assay_data (compound, quantity_measured, measure_unit, number) VALUES
  ('Nc1nnc(CN[C@@H]2C[C@H]2c2ccc(OCc3ccccc3)cc2)o1 [ORY-2001, vafidemstat]', 'Tmax', 'h', 8.67);

---

Experiment: Mouse pharmacokinetics
Type: in vivo, BALB/c mice
Settings: male, mouse, plasma; BALB/c mice, oral 10 mg/kg; read-out: Plasma AUClast
QUANTITY MEASURED: AUC(0-t) (ng·h/mL)

INSERT INTO measurements (structure_as_smiles, quantity_measured, number) VALUES
  ('Nc1nnc(CN[C@@H]2C[C@H]2c2ccc(OCc3ccccc3)cc2)o1', 'AUC(0-t)', 17200);

---

Test: Mouse pharmacokinetics
Assay type: in vivo, BALB/c mice
Conditions: male, mouse, plasma; BALB/c mice, oral 10 mg/kg
QUANTITY MEASURED: half-life (min)

INSERT INTO assay_data (compound, measure_unit, number) VALUES
  ('Nc1nnc(CN[C@@H]2C[C@H]2c2ccc(OCc3ccccc3)cc2)o1 [ORY-2001, vafidemstat]', 'min', 133);

---

Assay: Rat pharmacokinetics
Assay type: in vivo, Wistar rats
Conditions: male, Wistar, rat, plasma, po, 10 mg/kg, Wistar rats, oral gavage 10 mg/kg
Description: Blood samples were collected at 0, 0.08 (for IV only), 0.25, 0.5, 1, 2, 4, and 6 (Only for PO) 8 and 24 hr for IV and PO group and at three rats were euthanized by using excess CO2 asphyxiation, each at 0.25, 1 and 4 hr post dose and brain was collected. The study was conducted at Sai Advantium Pharma Limited, Pune, India, in accordance with the guidelines of the Institutional Animal Ethics Committee (IAEC). […]
QUANTITY MEASURED: Tmax

INSERT INTO assay_data (molecule, result) VALUES
  ('Nc1nnc(CN[C@@H]2C[C@H]2c2ccc(OCc3ccccc3)cc2)o1 [ORY-2001, vafidemstat]', '50 min');

---

Assay: Rat pharmacokinetics
Assay type: in vivo, Wistar rats
Conditions: male, Wistar, rat, plasma, iv, 2 mg/kg, Wistar rats, intravenous 2 mg/kg; read-out: Plasma AUCinf
QUANTITY MEASURED: AUC(0-inf)

INSERT INTO measurements (compound, result) VALUES
  ('Nc1nnc(CN[C@@H]2C[C@H]2c2ccc(OCc3ccccc3)cc2)o1 [ORY-2001, vafidemstat]', '3910 ng·h/mL');
